B1: ALDH8A1 (parent)
chain: FTGSQPTAERITQLSAPHCKKLSL

variants of: B1; test: protein stability index of a GFP-peptide fusion (GPS, HEK-293T) (PSI 1-6); higher = more stable; details: c terminus: a fixed tail appended;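 further: lentivirally expressed fusions sorted by FACS into six bins by GFP to DsRed ratio, PSI derived from sequencing read proportions per bin multiplied by bin number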
quantityKind: protein stability index
API note: the answer field is a bare number with no unit suffix.

Solved entries:
### Prompt Please look up its protein stability index: `FKGSQPTAERITQLSAPHCKKLSL`
### Response 3.42

### Prompt Please look up its protein stability index: `FTPSQPTAERITQLSAPHCKKLSL`
### Response 2.07

### Prompt Please look up its protein stability index: `FTGSQPTAERITQLSAPHCIKLSL`
### Response 1.61

### Prompt Please look up its protein stability index: `FTGSQPTAERITQLSAPHCKKLSM`
### Response 2.46

### Prompt Please look up its protein stability index: `FTGSQPTAEQITQLSAPHCKKLSL`
### Response 2.17

More entries:
### Prompt Please look up its protein stability index: `FTGYQPTAERITQLSAPHCKKLSL`
### Response 2.22

### Prompt Please look up its protein stability index: `FTGSQPTAERIAQLSAPHCKKLSL`
### Response 2.21

### Prompt Please look up its protein stability index: `FTGSQPTAERITQLSAPHCKKLSS`
### Response 2.95

### Prompt Please look up its protein stability index: `FTKSQPTAERITQLSAPHCKKLSL`
### Response 3.45

### Prompt Please look up its protein stability index: `FTGSLPTAERITQLSAPHCKKLSL`
### Response 1.65

### Prompt Please look up its protein stability index: `FTGSQPTAERKTQLSAPHCKKLSL`
### Response 1.93

### Prompt Please look up its protein stability index: `FTGSQPTAERITQLAAPHCKKLSL`
### Response 2.39

### Prompt Please look up its protein stability index: `FTGGQPTAERITQLSAPHCKKLSL`
### Response 1.7

### Prompt Please look up its protein stability index: `FTGSQPTAERITQLSKPHCKKLSL`
### Response 2.03

### Prompt Please look up its protein stability index: `FTGSQPTAEWITQLSAPHCKKLSL`
### Response 1.93

### Prompt Please look up its protein stability index: `FTGSQPTAERIQQLSAPHCKKLSL`
### Response 2.36

### Prompt Please look up its protein stability index: `FTGSQPTAIRITQLSAPHCKKLSL`
### Response 2.23

### Prompt Please look up its protein stability index: `FTGSQPTAERIMQLSAPHCKKLSL`
### Response 2

### Prompt Please look up its protein stability index: `FTGSQPTAERITQLSAPHWKKLSL`
### Response 1.6

### Prompt Please look up its protein stability index: `FTGSQPTAERITQLSAPRCKKLSL`
### Response 2.55
